This section presents compounds with their documented electrical conductivity values.
assay: xn = mol fraction of the nth substance listed; conditions: 313.15 K; 101 kPa; x2 = 0; x3 = 0

Reported electrical conductivity ( O + CCCCCCCCCCCCCC[n+]1ccccc1.O=C([O-])C(O)c1ccccc1 + CC(C)[C@H](N)C(=O)O ) = 0.00019 S/m

According to the records, this compound O + CCCCCCCCCCCCCC[n+]1ccccc1.O=C([O-])C(O)c1ccccc1 + CC(C)C[C@H](N)C(=O)O displays electrical conductivity of 0.00019 S/m

# compound O + CCCCCCCCCCCCCC[n+]1ccccc1.O=C([O-])C(O)c1ccccc1 + NCC(=O)NCC(=O)O ; its electrical conductivity = 0.00019 S/m
